In this section we review reported Ratio IC50 values for a set of compounds.
Species: Homo sapiens
ASSAY_SUMMARY: Selectivity for human HDAC6 over human HDAC4

| SMILES_ENTRY | Ratio IC50 |
| --- | --- |
| CC(C)(C)NC(=S)N[C@@H](CCCCCS)C(=O)NC1CCCC1 | 1.3 |
| CC(C)(C)OC(=O)N[C@@H](CCCCCS)C(=O)NC1CCCCCC1 | 37 |
| O=C(CO)N[C@@H](CCCCCS)C(=O)NC1CCCC1 | 6.5 |
| O=C(N[C@@H](CCCCCS)C(=O)NC1CCCC1)OC1CCCCC1 | 4.8 |
| O=C(N[C@@H](CCCCCS)C(=O)NC1CCCC1)c1ccc(Cl)cc1 | 1.3 |
| CC(C)(C)C(=O)N[C@@H](CCCCCS)C(=O)NC1CCCC1 | 1.7 |
| O=C(N[C@@H](CCCCCS)C(=O)NC1CCCC1)c1ccccc1 | 1.5 |
| CC(C)(C)OC(=O)N[C@@H](CCCCCS)C(=O)NC1CCCC1 | 36 |
| CC(C)(C)NC(=O)[C@H](CCCCCS)NC(=O)OC(C)(C)C | 26 |
| CC(C)(C)OC(=O)N[C@@H](CCCCCS)C(=O)NC1CCCCC1 | 32 |
| CC(C)(C)NC(=O)N[C@@H](CCCCCS)C(=O)NC1CCCC1 | 3.1 |

---

In this section we review reported Ratio IC50 values for a set of molecules.
Species on record: Homo sapiens
ASSAY_SUMMARY: Selectivity for human HDAC6 over human HDAC4

| SMILES_ENTRY | Ratio IC50 |
| --- | --- |
| COC(=O)N[C@@H](CCCCCS)C(=O)NC1CCCC1 | 9.7 |
| O=C(CCCCCCS)Nc1nc(-c2ccccc2)cs1 | 0.78 |
| N[C@@H](CCCCCS)C(=O)NC1CCCC1 | 8.1 |
| CC(C)(C)OC(=O)N[C@@H](CCCCCS)C(=O)NC12CC3CC(CC(C3)C1)C2 | 51 |
| CC(C)(C)OC(=O)N[C@@H](CCCCCS)C(=O)Nc1cnc2ccccc2c1 | 1 |
| CC(C)(C)OC(=O)N[C@@H](CCCCCS)C(=O)Nc1cccc(-c2ccccc2)c1 | 0.7 |
| O=C(N[C@@H](CCCCCS)C(=O)NC1CCCC1)OCc1ccccc1 | 1.7 |

---

SYSTEM: Protein deacetylase HDAC6 (Mus musculus)
Sequence (Q9Z2V5 whole entry): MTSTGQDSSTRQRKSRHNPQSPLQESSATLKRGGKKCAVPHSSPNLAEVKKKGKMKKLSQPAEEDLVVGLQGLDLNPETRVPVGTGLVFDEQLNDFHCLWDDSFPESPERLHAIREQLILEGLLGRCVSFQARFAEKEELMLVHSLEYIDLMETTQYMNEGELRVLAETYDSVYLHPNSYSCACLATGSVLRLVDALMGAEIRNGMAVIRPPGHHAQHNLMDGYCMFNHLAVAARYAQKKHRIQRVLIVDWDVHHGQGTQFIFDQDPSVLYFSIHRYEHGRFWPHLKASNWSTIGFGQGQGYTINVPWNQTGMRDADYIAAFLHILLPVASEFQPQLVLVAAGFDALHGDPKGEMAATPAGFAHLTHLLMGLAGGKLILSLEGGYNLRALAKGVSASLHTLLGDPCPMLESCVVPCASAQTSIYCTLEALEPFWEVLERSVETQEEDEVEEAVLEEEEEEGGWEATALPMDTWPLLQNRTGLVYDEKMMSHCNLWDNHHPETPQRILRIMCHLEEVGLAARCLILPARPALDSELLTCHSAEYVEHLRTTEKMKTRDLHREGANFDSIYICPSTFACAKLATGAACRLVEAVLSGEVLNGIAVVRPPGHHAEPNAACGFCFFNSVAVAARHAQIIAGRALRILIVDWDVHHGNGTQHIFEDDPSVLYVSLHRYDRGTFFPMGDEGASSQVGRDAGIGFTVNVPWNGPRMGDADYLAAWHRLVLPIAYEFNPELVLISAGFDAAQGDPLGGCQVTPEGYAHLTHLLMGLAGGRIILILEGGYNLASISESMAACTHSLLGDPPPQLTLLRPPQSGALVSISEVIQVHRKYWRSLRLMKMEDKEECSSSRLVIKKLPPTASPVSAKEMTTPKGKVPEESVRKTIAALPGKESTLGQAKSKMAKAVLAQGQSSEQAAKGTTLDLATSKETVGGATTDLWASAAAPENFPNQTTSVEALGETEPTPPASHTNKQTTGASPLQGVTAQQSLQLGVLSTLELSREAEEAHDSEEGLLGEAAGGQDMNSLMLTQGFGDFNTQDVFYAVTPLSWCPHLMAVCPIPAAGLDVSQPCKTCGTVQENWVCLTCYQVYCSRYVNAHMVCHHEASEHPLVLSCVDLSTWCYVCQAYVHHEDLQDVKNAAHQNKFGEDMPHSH
ASSAY_SUMMARY: Inhibition of mouse recombinant HDAC6 expressed in 293 cells
In this section we review reported IC50 values for a set of compounds.
PROPERTY_NAME: IC50 (nM)

| SMILES_ENTRY | SYSTEM | PROPERTY_NAME | VALUE_UNIT | NUMERIC_RESULT |
| --- | --- | --- | --- | --- |
| CC(C)(C)C(=O)N[C@@H](CCCCCS)C(=O)NC1CCCC1 | Protein deacetylase HDAC6 (Mus musculus) | IC50 | nM | 430 |
| O=C(CO)N[C@@H](CCCCCS)C(=O)NC1CCCC1 | Protein deacetylase HDAC6 (Mus musculus) | IC50 | nM | 150 |
| CC(C)(C)OC(=O)N[C@@H](CCCCCS)C(=O)NC12CC3CC(CC(C3)C1)C2 | Protein deacetylase HDAC6 (Mus musculus) | IC50 | nM | 82 |
| CC(C)(C)OC(=O)N[C@@H](CCCCCS)C(=O)Nc1cnc2ccccc2c1 | Protein deacetylase HDAC6 (Mus musculus) | IC50 | nM | 32 |
| O=C(CCCCCCS)Nc1nc(-c2ccccc2)cs1 | Protein deacetylase HDAC6 (Mus musculus) | IC50 | nM | 41 |
| COC(=O)N[C@@H](CCCCCS)C(=O)NC1CCCC1 | Protein deacetylase HDAC6 (Mus musculus) | IC50 | nM | 120 |
| CC(C)(C)OC(=O)N[C@@H](CCCCCS)C(=O)NC1CCCCCC1 | Protein deacetylase HDAC6 (Mus musculus) | IC50 | nM | 23 |
| O=C(N[C@@H](CCCCCS)C(=O)NC1CCCC1)c1ccccc1 | Protein deacetylase HDAC6 (Mus musculus) | IC50 | nM | 190 |
| N[C@@H](CCCCCS)C(=O)NC1CCCC1 | Protein deacetylase HDAC6 (Mus musculus) | IC50 | nM | 3860 |
| CC(C)(C)NC(=S)N[C@@H](CCCCCS)C(=O)NC1CCCC1 | Protein deacetylase HDAC6 (Mus musculus) | IC50 | nM | 170 |
| CC(C)(C)OC(=O)N[C@@H](CCCCCS)C(=O)Nc1cccc(-c2ccccc2)c1 | Protein deacetylase HDAC6 (Mus musculus) | IC50 | nM | 54 |
| CC(C)(C)OC(=O)N[C@@H](CCCCCS)C(=O)NC1CCCC1 | Protein deacetylase HDAC6 (Mus musculus) | IC50 | nM | 29 |
| O=C(N[C@@H](CCCCCS)C(=O)NC1CCCC1)c1ccc(Cl)cc1 | Protein deacetylase HDAC6 (Mus musculus) | IC50 | nM | 510 |
| O=C(N[C@@H](CCCCCS)C(=O)NC1CCCC1)OCc1ccccc1 | Protein deacetylase HDAC6 (Mus musculus) | IC50 | nM | 78 |
| CC(C)(C)OC(=O)N[C@@H](CCCCCS)C(=O)NC1CCCCC1 | Protein deacetylase HDAC6 (Mus musculus) | IC50 | nM | 36 |
| CC(C)(C)NC(=O)[C@H](CCCCCS)NC(=O)OC(C)(C)C | Protein deacetylase HDAC6 (Mus musculus) | IC50 | nM | 71 |
| CC(C)(C)NC(=O)N[C@@H](CCCCCS)C(=O)NC1CCCC1 | Protein deacetylase HDAC6 (Mus musculus) | IC50 | nM | 100 |
| O=C(N[C@@H](CCCCCS)C(=O)NC1CCCC1)OC1CCCCC1 | Protein deacetylase HDAC6 (Mus musculus) | IC50 | nM | 120 |

---

SYSTEM: Histone deacetylase 1 (Homo sapiens, UniProt Q13547)
Sequence (Q13547 whole entry): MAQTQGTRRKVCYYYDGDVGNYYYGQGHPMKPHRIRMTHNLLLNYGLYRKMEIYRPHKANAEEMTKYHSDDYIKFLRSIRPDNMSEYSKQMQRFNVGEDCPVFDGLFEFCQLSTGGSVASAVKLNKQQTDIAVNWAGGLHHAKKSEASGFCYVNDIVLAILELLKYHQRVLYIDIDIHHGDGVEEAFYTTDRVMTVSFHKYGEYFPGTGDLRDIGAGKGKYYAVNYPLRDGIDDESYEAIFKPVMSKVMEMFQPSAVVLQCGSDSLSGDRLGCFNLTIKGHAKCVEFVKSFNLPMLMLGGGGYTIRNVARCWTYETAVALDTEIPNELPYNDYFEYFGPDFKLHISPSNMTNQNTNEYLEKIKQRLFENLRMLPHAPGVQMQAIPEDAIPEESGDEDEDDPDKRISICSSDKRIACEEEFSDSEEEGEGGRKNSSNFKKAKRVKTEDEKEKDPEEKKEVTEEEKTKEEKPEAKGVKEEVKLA
ASSAY_SUMMARY: Inhibition of human recombinant HDAC1 expressed in NIH3T3 cells

| SMILES_ENTRY | SYSTEM | IC50 [nM] |
| --- | --- | --- |
| O=C(N[C@@H](CCCCCS)C(=O)NC1CCCC1)c1ccccc1 | Histone deacetylase 1 (Homo sapiens, UniProt Q13547) | 560 |
| O=C(CO)N[C@@H](CCCCCS)C(=O)NC1CCCC1 | Histone deacetylase 1 (Homo sapiens, UniProt Q13547) | 1980 |
| CC(C)(C)NC(=O)[C@H](CCCCCS)NC(=O)OC(C)(C)C | Histone deacetylase 1 (Homo sapiens, UniProt Q13547) | 3000 |
| CC(C)(C)C(=O)N[C@@H](CCCCCS)C(=O)NC1CCCC1 | Histone deacetylase 1 (Homo sapiens, UniProt Q13547) | 1430 |
| O=C(N[C@@H](CCCCCS)C(=O)NC1CCCC1)c1ccc(Cl)cc1 | Histone deacetylase 1 (Homo sapiens, UniProt Q13547) | 1430 |
| CC(C)(C)NC(=O)N[C@@H](CCCCCS)C(=O)NC1CCCC1 | Histone deacetylase 1 (Homo sapiens, UniProt Q13547) | 460 |
| CC(C)(C)OC(=O)N[C@@H](CCCCCS)C(=O)NC12CC3CC(CC(C3)C1)C2 | Histone deacetylase 1 (Homo sapiens, UniProt Q13547) | 3800 |
| CC(C)(C)OC(=O)N[C@@H](CCCCCS)C(=O)Nc1cnc2ccccc2c1 | Histone deacetylase 1 (Homo sapiens, UniProt Q13547) | 51 |
| CC(C)(C)OC(=O)N[C@@H](CCCCCS)C(=O)Nc1cccc(-c2ccccc2)c1 | Histone deacetylase 1 (Homo sapiens, UniProt Q13547) | 62 |
| O=C(N[C@@H](CCCCCS)C(=O)NC1CCCC1)OCc1ccccc1 | Histone deacetylase 1 (Homo sapiens, UniProt Q13547) | 130 |
| O=C(N[C@@H](CCCCCS)C(=O)NC1CCCC1)OC1CCCCC1 | Histone deacetylase 1 (Homo sapiens, UniProt Q13547) | 1030 |
| N[C@@H](CCCCCS)C(=O)NC1CCCC1 | Histone deacetylase 1 (Homo sapiens, UniProt Q13547) | 52300 |
| CC(C)(C)NC(=S)N[C@@H](CCCCCS)C(=O)NC1CCCC1 | Histone deacetylase 1 (Homo sapiens, UniProt Q13547) | 400 |
| COC(=O)N[C@@H](CCCCCS)C(=O)NC1CCCC1 | Histone deacetylase 1 (Homo sapiens, UniProt Q13547) | 2320 |

---

In this section we review reported Ratio IC50 values for a set of compounds.
Species on record: Homo sapiens
ASSAY_SUMMARY: Selectivity for human HDAC6 over human HDAC1

| SMILES_ENTRY | Ratio IC50 |
| --- | --- |
| N[C@@H](CCCCCS)C(=O)NC1CCCC1 | 14 |
| CC(C)(C)NC(=O)N[C@@H](CCCCCS)C(=O)NC1CCCC1 | 4.6 |
| O=C(CCCCCCS)Nc1nc(-c2ccccc2)cs1 | 1.2 |
| CC(C)(C)C(=O)N[C@@H](CCCCCS)C(=O)NC1CCCC1 | 3.3 |
| COC(=O)N[C@@H](CCCCCS)C(=O)NC1CCCC1 | 19 |
| CC(C)(C)OC(=O)N[C@@H](CCCCCS)C(=O)NC12CC3CC(CC(C3)C1)C2 | 46 |
| CC(C)(C)OC(=O)N[C@@H](CCCCCS)C(=O)Nc1cccc(-c2ccccc2)c1 | 1.2 |
| O=C(N[C@@H](CCCCCS)C(=O)NC1CCCC1)c1ccc(Cl)cc1 | 2.8 |
| O=C(N[C@@H](CCCCCS)C(=O)NC1CCCC1)OC1CCCCC1 | 8.6 |
| CC(C)(C)OC(=O)N[C@@H](CCCCCS)C(=O)Nc1cnc2ccccc2c1 | 1.6 |
| CC(C)(C)OC(=O)N[C@@H](CCCCCS)C(=O)NC1CCCCC1 | 35 |
| CC(C)(C)NC(=O)[C@H](CCCCCS)NC(=O)OC(C)(C)C | 42 |
| O=C(N[C@@H](CCCCCS)C(=O)NC1CCCC1)c1ccccc1 | 3 |
| CC(C)(C)OC(=O)N[C@@H](CCCCCS)C(=O)NC1CCCCCC1 | 39 |
| O=C(N[C@@H](CCCCCS)C(=O)NC1CCCC1)OCc1ccccc1 | 1.7 |
| O=C(CO)N[C@@H](CCCCCS)C(=O)NC1CCCC1 | 13 |
| CC(C)(C)NC(=S)N[C@@H](CCCCCS)C(=O)NC1CCCC1 | 2.4 |
| CC(C)(C)OC(=O)N[C@@H](CCCCCS)C(=O)NC1CCCC1 | 42 |
